Target: BlaC (Mycobacterium tuberculosis (strain ATCC 25618 / H37Rv), UniProt P9WKD3)
Sequence (P9WKD3 35-307 limits assumed): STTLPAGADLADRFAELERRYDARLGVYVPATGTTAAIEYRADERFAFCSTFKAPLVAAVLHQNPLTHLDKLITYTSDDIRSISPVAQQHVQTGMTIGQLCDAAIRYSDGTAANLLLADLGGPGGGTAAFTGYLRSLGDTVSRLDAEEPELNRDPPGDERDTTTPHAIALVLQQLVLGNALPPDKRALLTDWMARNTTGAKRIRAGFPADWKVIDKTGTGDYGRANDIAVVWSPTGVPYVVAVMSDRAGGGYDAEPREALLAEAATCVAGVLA
Test: BlaC inhibition assay (FC5 hydrolysis, fluorescence)
Format: biochemical
Conditions: pre-incubation time 10 min
Field: IC50. Provide a value for each of the compounds that follow.
One number for each entry, in nM.

C[C@]1(Cn2ccnn2)[C@H](C(=O)O)N2C(=O)C[C@H]2S1(=O)=O	2750

--- query ---
Q: Find the recorded IC50 belonging to `C[C@@H](O)[C@H]1C(=O)N2C(C(=O)O)=C([C@H]3CCCO3)S[C@H]12` and report it.
Result: 2510

====

Target: L2 (Stenotrophomonas maltophilia (Pseudomonas maltophilia) (Xanthomonas maltophilia), UniProt P96465)
Sequence (P96465 36-303 limits assumed): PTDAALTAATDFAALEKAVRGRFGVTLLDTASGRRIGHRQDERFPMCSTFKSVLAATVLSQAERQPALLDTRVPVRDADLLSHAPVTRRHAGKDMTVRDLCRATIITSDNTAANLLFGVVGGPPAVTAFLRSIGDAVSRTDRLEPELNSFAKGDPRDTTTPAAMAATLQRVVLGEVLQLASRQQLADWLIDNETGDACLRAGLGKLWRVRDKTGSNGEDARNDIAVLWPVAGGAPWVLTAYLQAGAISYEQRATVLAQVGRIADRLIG
Test: Inhibition of purified L2, fluorogenic substrate FC5 as reporter
Conditions: IC50, purified L2, FC5 substrate
Field: IC50. Provide a value for each of the molecules that follow.
One number for each entry, in nM.

O=C(O)[C@H]1/C(=C/CO)O[C@@H]2CC(=O)N21	22.3

--- query ---
Q: Find the recorded IC50 belonging to `NC(=O)[C@@H]1CC[C@@H]2CN1C(=O)N2OS(=O)(=O)O` and report it.
Result: 14.4

====

Target: BlaC (Mycobacterium tuberculosis (strain ATCC 25618 / H37Rv), UniProt P9WKD3)
Experiment: BlaC inhibition assay (FC5 hydrolysis, fluorescence)
Format: biochemical
Conditions: pre-incubation time 60 min
Field: IC50. Provide a value for each of the molecules that follow.
Answers are plain numbers, in µM.

C[C@@H](O)[C@H]1C(=O)N2C(C(=O)O)=C([C@H]3CCCO3)S[C@H]12 [Faropenem]	3.55

--- query ---
Q: Find the recorded IC50 belonging to C[C@]1(Cn2ccnn2)[C@H](C(=O)O)N2C(=O)C[C@H]2S1(=O)=O [Tazobactam] and report it.
Result: 3.55

====

Target: L2 (Stenotrophomonas maltophilia (Pseudomonas maltophilia) (Xanthomonas maltophilia))
Experiment: Inhibition of purified L2, fluorogenic substrate FC5 as reporter
Conditions: pIC50, purified L2, FC5 substrate
measuredEndpoint: pIC50
One number for each entry, as −log10 of the molar value.

Q: API: value(readout= pIC50, system= L2 (Stenotrophomonas maltophilia (Pseudomonas maltophilia) (Xanthomonas maltophilia)), query= `O=C(O)[C@H]1/C(=C/CO)O[C@@H]2CC(=O)N21` )
Result: 7.41
